Listed below: inhibition at 20 µM values for each entry.
Target: KRas G12D mutant protein (Homo sapiens (Human), UniProt P01116, G12D)
Sequence (P01116-2 other isoform, or with tags, fused parts or gaps G12D): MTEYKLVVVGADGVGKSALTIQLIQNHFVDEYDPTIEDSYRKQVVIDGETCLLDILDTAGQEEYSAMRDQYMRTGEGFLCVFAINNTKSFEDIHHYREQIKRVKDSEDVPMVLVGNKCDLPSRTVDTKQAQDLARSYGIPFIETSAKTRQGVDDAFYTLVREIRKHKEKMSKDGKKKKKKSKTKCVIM
Assay: Ras GTP binding domain inhibition assay (labeled GTP)
Conditions: at 20 μM; read-out: KRas G12D % Inh.
Description: The following method was developed as specific assay for KRas G12D mutant protein. Buffer-I: • 50 mM Tris, pH 7.5 • 150 mM NaCl (optional) • 1 mM MgCl2 • 1 mM DTT. • KRas G12D mutant protein was expressed as a His-tagged protein. […]
METRIC: inhibition at 20 µM

COCCNc1nc(-c2cn(C)cn2)nc2sc(C)c(-c3ccccc3)c12 [drawing 3903] : 25 to 50%
CC(C)COc1ccc(-c2csc3c(O)nc(-c4cn(C)cn4)nc23)cn1 [drawing 3923] : 1 to 25%
COc1nc(-c2ccccn2)nc2c(C3CCCC3)csc12 [drawing 3789] : 25 to 50%
O=c1[nH]c(-c2ccccn2)nc2c([C@@H]3O[C@H](CO)[C@@H](O)[C@H]3O)csc12 [drawing 3845] : 25 to 50%
CN1CCN(c2nc(-c3ccccn3)nc3scc(C(=O)NCCc4cnc(O)nc4)c23)CC1 [drawing 3771] : 51 to 75%
Oc1nc(-c2ccccn2)nc2c(CC3CCNC3)csc12 (stereo not drawn) [drawing 3844] : 51 to 75%
OCC1(c2ccc(-c3csc4c(O)nc(-c5ccccn5)nc34)cc2)CC1 [drawing 3758] : 76 to 100%
Cc1sc2c(O)nc(-c3nccn3C)nc2c1-c1ccc(F)cc1F [drawing 3939] : 1 to 25%
COc1ccc(CCC(=O)Nc2nc(-c3ccccn3)nc3sccc23)cn1 [drawing 3812] : 51 to 75%
